Origin of values: ChEMBL document CHEMBL1149585

System: Mus musculus
Experiment: Inhibition of xylene-induced ear edema in Kunming mouse at 20 mg/kg, po after 2 hrs relative to control
Assay type: functional
Short version: inhibition in vivo at 20 mg/kg at least 40% is TRUE, less is FALSE.

# example entries with known answers
C[C@@H]1O[C@@H](c2cccc([N+](=O)[O-])c2)OC[C@H]1NC(=O)c1ccccc1    TRUE
C[C@@H]1O[C@H](c2ccc([N+](=O)[O-])cc2)OC[C@H]1NC(=O)c1ccccc1    TRUE
O=C(Cc1ccccc1)N[C@H]1CO[C@H](c2ccc([N+](=O)[O-])cc2)OC1    TRUE
Cc1ccc([C@H]2OC[C@H](NC(=O)Cc3ccccc3)CO2)cc1    FALSE
O=C(Cc1ccccc1)N[C@H]1CCCO[C@@H](c2ccc([N+](=O)[O-])cc2)OC1    FALSE

q: Form field: inhibition in vivo at 20 mg/kg at least 40%? Entry: O=C(Cc1ccccc1)N[C@H]1CCO[C@@H](c2cccc([N+](=O)[O-])c2)OC1
a: FALSE

q: Hello, I need to know if O=C(Cc1ccccc1)N[C@H]1CCCO[C@H](c2ccc([N+](=O)[O-])cc2)OC1 has measured inhibition in vivo at 20 mg/kg not below 40%. Thanks!
a: FALSE

q: Has O=C(Cc1ccccc1)N[C@H]1CCCO[C@@H](c2cccc([N+](=O)[O-])c2)OC1 a recorded inhibition in vivo at 20 mg/kg greater than or equal to 40%?
a: FALSE

q: API: above_or_equal(metric=inhibition in vivo at 20 mg/kg, cutoff=40%) for item O=C(N[C@H]1CCO[C@H](c2ccc(Cl)cc2)OC1)c1ccccc1
a: FALSE

q: Decide: inhibition in vivo at 20 mg/kg of Cc1ccc([C@@H]2OC[C@@H](NC(=O)Cc3ccccc3)[C@@H](C)O2)cc1 >= 40%?
a: TRUE

###

System: Mus musculus
Assay: Inhibition of xylene-induced ear edema in Kunming mouse at 20 mg/kg, po after 2 hrs relative to control
Assay type: functional
Output rule met for inhibition in vivo at 20 mg/kg not less than 30%; output rule not met otherwise.

Cc1ccc([C@H]2OC[C@@H](NC(=O)Cc3ccccc3)CO2)cc1    rule met
O=C(Cc1ccccc1)N[C@H]1CCO[C@H](c2ccc([N+](=O)[O-])cc2)OC1    rule not met
Cc1ccc([C@H]2OC[C@@H](NC(=O)c3ccccc3)[C@H](C)O2)cc1    rule met
O=C(N[C@H]1CO[C@@H](c2ccc(Cl)cc2)OC1)c1ccccc1    rule not met
C[C@@H]1O[C@H](c2ccc([N+](=O)[O-])cc2)OC[C@H]1NC(=O)Cc1ccccc1    rule met

q: Is the recorded value of inhibition in vivo at 20 mg/kg equal to or greater than 30% for this compound? O=C(Cc1ccccc1)N[C@H]1CCCO[C@H](c2cccc([N+](=O)[O-])c2)OC1
a: rule not met

q: // inclusive: inhibition in vivo at 20 mg/kg at least 30%? input: Cc1ccc([C@@H]2OC[C@@H](NC(=O)c3ccccc3)[C@H](C)O2)cc1
a: rule met

q: # bool: inhibition in vivo at 20 mg/kg of O=C(N[C@H]1CCO[C@@H](c2ccc([N+](=O)[O-])cc2)OC1)c1ccccc1 >= 30%
a: rule not met

q: Would you say O=C(N[C@H]1CCO[C@@H](c2ccc(Cl)cc2)OC1)c1ccccc1 shows inhibition in vivo at 20 mg/kg at minimum 30%?
a: rule not met
